I'd appreciate it if you could supply pIC50 values for the items below.
Biological target: PLpro from SCoV-2 (Severe acute respiratory syndrome coronavirus 2)
Assay: Fluorescent PLpro inhibition assay (RLRGG-AMC substrate), dose response
Type: biochemical, SARS-CoV-2
Conditions: IC50 (PLpro inhibition, HTS hits), HTS hit dose response, 10 point 1:2 dilution from 40 μM; 50 nM PLpro, 50 μM RLRGG-AMC
One number for each entry, as −log10 of the molar value.

- compound: "CCCSc1nc2sc3c(c2c(=O)n1CC)CCc1ccccc1-3 [Compound 5]"
  pIC50: 5.80

Hi team, please reply with pIC50 for each item in this list.
1. CN(C)C(S)=Nc1nc2ccccc2s1 [Compound 8]
2. Cc1nnc(Sc2nc(Sc3nnc(C)s3)nc(Sc3nnc(C)s3)n2)s1 [Compound 4]
3. COC(=O)c1ccc([C@@H]2Nc3c(Cl)cccc3[C@@H]3C=CC[C@@H]32)cc1 [Compound 9]

**Result**
[5.32, 5.85, 5.10]

Hi team, please reply with pIC50 for each item in this list.
1. CCOC(=O)c1sc(=S)n(-c2cc(OC)ccc2OC)c1N [Compound 7]
2. CNC(=O)c1sc(=S)n(-c2cc(Cl)ccc2OC)c1N [Compound 2]

**Result**
[5.41, 6.01]

Hi team, please reply with pIC50 for each item in this list.
1. CCn1c(N)c(C(=O)Nc2ccccc2OC)sc1=S [Compound 6]
2. Cc1ccc(-n2c(N)c(C(=O)N3CCCCC3)sc2=S)cc1 [Compound 10]
3. Cc1nn(-c2ccccc2)c(OC(=O)C(C)C)c1Sc1ccccc1 [Compound 1]

**Result**
[5.56, 5.08, 6.09]
